# Conditions: in ethyl acetate, 313.15 K
Endpoint Name: solubility (mole fraction)

Task: Bench note: what solubility (mole fraction) did O=C(O)c1ccc(Cl)cc1Cl show?
Output: 0.0595

====

# Conditions: in ethanol, 288.15 K
Endpoint Name: solubility (mole fraction)
Give a plain numeric answer without units written out.

Task: Field request: solubility (mole fraction) | item: O=C(O)c1ccc(Cl)cc1Cl
Output: 0.0485

====

# Conditions: in acetonitrile, 318.15 K
Endpoint Name: solubility (mole fraction)
Would you mind answering with just the numeric figure?

Task: For O=C(O)c1ccc(Cl)cc1Cl , what is its reported solubility (mole fraction)?
Output: 0.0115

====

# Conditions: in acetone, 273.15 K
Endpoint Name: solubility (mole fraction)
Output spec: single numeric token, no unit.

Task: Which solubility (mole fraction) is listed for O=C(O)c1ccc(Cl)cc1Cl ?
Output: 0.0323

====

# Conditions: in n-butanol, 303.15 K
Endpoint Name: solubility (mole fraction)
Give the figure only, with no unit attached.

Task: # lookup: solubility (mole fraction) of O=C(O)c1ccc(Cl)cc1Cl
Output: 0.0676

====

# Conditions: in methanol, 283.15 K
Endpoint Name: solubility (mole fraction)
Could you keep your reply to the number by itself?

Task: Given the entry O=C(O)c1ccc(Cl)cc1Cl , report its measured solubility (mole fraction).
Output: 0.0331

====

# Conditions: in toluene, 308.15 K
Endpoint Name: solubility (mole fraction)
Please reply with the value in numeric form only.

Task: What solubility (mole fraction) value was documented for this molecule, O=C(O)c1ccc(Cl)cc1Cl ?
Output: 0.00671

====

# Conditions: in ethyl acetate, 278.15 K
Endpoint Name: solubility (mole fraction)
Just the number.

Task: // solubility (mole fraction) lookup, key: O=C(O)c1ccc(Cl)cc1Cl
Output: 0.0263

====

# Conditions: in ethanol, 313.15 K
Endpoint Name: solubility (mole fraction)

Task: Recorded solubility (mole fraction) of O=C(O)c1ccc(Cl)cc1Cl , please.
Output: 0.0788

====

# Conditions: in n-propanol, 293.15 K
Endpoint Name: solubility (mole fraction)
Write no unit; give the number alone.

Task: Reported solubility (mole fraction) for O=C(O)c1ccc(Cl)cc1Cl : what is it?
Output: 0.052

====

# Conditions: in methanol, 288.15 K
Endpoint Name: solubility (mole fraction)
Number only, no unit.

Task: Item under review: O=C(O)c1ccc(Cl)cc1Cl . Reported solubility (mole fraction)?
Output: 0.0369

====

# Conditions: in isobutanol, 273.15 K
Endpoint Name: solubility (mole fraction)
Respond numerically, and do not add a unit to the figure.

Task: Which measured solubility (mole fraction) value corresponds to O=C(O)c1ccc(Cl)cc1Cl ?
Output: 0.0242

====

# Conditions: in isopropanol, 283.15 K
Endpoint Name: solubility (mole fraction)

Task: Fill in the blank: the reported solubility (mole fraction) of O=C(O)c1ccc(Cl)cc1Cl is ____.
Output: 0.0459

====

# Conditions: in isobutanol, 303.15 K
Endpoint Name: solubility (mole fraction)
Returns: the value as a bare number; no unit string appended.

Task: solubility (mole fraction) lookup needed for O=C(O)c1ccc(Cl)cc1Cl , thanks.
Output: 0.0535

====

# Conditions: in methanol, 298.15 K
Endpoint Name: solubility (mole fraction)
Please give only the number in your answer, with no unit.

Task: Suppose we examine the molecule O=C(O)c1ccc(Cl)cc1Cl ; what solubility (mole fraction) value has been reported?
Output: 0.0458
